Examples of molecules with documented pIC50 follow.
tested.system: PBP3 (Neisseria gonorrhoeae, UniProt Q5FAB9)
Sequence (Q5FAB9 22-469): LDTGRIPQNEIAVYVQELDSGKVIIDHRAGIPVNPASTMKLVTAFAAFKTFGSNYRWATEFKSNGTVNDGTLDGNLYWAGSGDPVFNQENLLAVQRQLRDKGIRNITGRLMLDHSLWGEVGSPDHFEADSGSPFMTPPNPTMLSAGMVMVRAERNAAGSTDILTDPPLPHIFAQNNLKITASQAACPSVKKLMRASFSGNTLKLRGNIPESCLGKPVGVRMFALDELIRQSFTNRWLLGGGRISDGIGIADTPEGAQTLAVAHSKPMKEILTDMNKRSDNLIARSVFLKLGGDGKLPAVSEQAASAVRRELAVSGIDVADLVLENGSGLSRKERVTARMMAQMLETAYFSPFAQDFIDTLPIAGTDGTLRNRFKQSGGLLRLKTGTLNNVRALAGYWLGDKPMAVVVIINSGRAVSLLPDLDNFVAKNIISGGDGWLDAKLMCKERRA
recorded.conditions: read-out: IC50 PBP3; strain ATCC 49226; membrane preparation, 30 min drug then Bocillin FL
pIC50: −log10 of the molar value.

Worked examples follow.
Value of pIC50 reported for the molecule C=CC1=C(C(=O)O)N2C(=O)[C@@H](NC(=O)/C(=N\OCC(=O)O)c3csc(N)n3)[C@H]2SC1 is < 5.36

Value of pIC50 reported for the molecule Cn1c(N)c(NC(=O)NCCN)c[n+]1CC1=C(C(=O)O)N2C(=O)[C@@H](NC(=O)/C(=N\OC(C)(C)C(=O)[O-])c3nsc(N)n3)[C@H]2SC1 is < 5.52

More entries:
Value of pIC50 reported for the molecule CC(C)(O/N=C(\C(=O)N[C@@H]1C(=O)N2C(C(=O)[O-])=C(C[n+]3ccccc3)CS[C@H]12)c1csc(N)n1)C(=O)O is < 5.44
